Biological target: Platelet-derived growth factor receptor alpha (Homo sapiens)
Sequence (P16234 whole entry): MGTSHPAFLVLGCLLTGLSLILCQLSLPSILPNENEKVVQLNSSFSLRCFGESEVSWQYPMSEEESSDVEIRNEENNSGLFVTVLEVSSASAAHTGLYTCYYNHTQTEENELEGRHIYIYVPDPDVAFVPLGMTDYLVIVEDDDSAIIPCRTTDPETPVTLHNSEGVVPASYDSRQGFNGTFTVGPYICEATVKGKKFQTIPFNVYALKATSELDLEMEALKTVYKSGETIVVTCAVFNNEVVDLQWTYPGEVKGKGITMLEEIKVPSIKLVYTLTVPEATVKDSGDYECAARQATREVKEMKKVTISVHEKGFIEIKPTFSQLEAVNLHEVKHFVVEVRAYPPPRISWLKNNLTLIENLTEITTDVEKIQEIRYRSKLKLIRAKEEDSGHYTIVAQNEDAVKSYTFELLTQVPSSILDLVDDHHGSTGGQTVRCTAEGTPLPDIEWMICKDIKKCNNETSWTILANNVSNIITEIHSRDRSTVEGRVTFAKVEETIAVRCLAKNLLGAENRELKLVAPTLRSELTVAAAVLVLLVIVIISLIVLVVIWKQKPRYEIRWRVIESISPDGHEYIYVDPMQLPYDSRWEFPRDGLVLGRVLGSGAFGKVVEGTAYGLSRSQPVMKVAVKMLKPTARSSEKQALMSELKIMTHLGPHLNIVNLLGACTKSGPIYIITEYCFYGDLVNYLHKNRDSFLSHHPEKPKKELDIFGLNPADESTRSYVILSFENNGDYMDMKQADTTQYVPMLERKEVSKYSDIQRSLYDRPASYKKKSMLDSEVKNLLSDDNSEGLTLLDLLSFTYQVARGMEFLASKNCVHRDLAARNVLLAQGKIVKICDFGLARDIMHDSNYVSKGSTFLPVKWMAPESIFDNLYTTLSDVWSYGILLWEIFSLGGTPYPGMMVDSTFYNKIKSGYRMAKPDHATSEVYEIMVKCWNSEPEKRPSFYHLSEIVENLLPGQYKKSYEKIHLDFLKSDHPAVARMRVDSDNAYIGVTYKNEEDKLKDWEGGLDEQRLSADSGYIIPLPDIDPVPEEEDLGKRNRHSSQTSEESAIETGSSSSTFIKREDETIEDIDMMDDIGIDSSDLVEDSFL
pIC50: −log10 of the molar value.

{"Smiles String": "COc1cc2nccc(Oc3ccc(NC(=O)NC4CC4)c(Cl)c3)c2cc1C(N)=O", "Target Desc": "Platelet-derived growth factor receptor alpha (Homo sapiens)", "pIC50": 7.29}

====

Test: Toxicity in po dosed BALB/c mouse xenografted with MDA-MB-231 cells assessed as maximum tolerated dose
Type: organism-based
Conditions: in vivo
Measured Parameter: MTD (mg/kg)

{"Smiles String": "CN1CCN(c2ccc(-c3cc4c(N5CCN(C(=O)Nc6ccc(Cl)c(C(F)(F)F)c6)CC5)ncnc4s3)cc2)CC1", "Measurement Units": "mg/kg", "Data Value": 300}

====

Target: Vascular endothelial growth factor receptor 3 (Homo sapiens, UniProt P35916)
Sequence (P35916 whole entry): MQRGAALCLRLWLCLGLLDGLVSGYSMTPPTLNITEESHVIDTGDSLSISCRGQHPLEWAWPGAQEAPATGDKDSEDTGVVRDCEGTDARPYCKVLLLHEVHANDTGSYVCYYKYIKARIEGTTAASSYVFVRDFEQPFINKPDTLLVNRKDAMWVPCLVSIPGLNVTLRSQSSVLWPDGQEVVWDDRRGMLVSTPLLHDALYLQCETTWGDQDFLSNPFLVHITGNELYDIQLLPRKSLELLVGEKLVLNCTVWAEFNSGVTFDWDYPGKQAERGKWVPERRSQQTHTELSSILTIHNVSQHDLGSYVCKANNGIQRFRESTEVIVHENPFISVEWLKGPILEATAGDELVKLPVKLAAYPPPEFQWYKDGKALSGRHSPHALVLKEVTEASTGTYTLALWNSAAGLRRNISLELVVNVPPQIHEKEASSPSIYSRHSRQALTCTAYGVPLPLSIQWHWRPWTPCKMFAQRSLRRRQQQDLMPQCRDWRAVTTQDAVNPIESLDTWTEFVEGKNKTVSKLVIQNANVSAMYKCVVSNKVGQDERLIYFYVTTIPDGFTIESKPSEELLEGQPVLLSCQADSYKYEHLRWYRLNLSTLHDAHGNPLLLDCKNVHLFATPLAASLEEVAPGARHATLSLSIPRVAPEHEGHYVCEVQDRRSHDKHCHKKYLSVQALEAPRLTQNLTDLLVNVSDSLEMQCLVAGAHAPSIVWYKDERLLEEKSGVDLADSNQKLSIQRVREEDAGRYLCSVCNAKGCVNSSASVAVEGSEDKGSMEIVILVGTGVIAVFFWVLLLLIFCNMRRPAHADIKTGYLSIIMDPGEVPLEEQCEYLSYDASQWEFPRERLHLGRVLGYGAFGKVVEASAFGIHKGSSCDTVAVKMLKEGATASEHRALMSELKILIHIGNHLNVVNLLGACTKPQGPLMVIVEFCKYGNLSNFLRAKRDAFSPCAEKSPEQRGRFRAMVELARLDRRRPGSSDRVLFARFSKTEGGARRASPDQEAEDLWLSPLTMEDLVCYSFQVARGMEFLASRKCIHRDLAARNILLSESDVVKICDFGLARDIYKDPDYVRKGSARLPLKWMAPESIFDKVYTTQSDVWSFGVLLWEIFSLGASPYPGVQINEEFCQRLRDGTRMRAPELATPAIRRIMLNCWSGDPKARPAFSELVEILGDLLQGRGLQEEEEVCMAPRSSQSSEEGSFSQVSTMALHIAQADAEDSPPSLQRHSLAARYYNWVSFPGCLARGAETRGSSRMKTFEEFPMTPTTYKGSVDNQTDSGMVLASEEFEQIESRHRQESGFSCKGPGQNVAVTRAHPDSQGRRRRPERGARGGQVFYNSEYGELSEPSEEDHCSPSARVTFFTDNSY
Test: Inhibition of human FLT4/VEGFR3

{"Smiles String": "CN1CCN(c2ccc(-c3cc4c(N5CCN(C(=O)Nc6ccc(Cl)c(C(F)(F)F)c6)CC5)ncnc4s3)cc2)CC1", "Target Desc": "Vascular endothelial growth factor receptor 3 (Homo sapiens, UniProt P35916)", "IC50 (nM)": 110}

====

Experiment: AUC (0 to t) in Sprague-Dawley rat at 10 mg/kg, po by LC-MS analysis
Format: ADME, organism-based
Design: dose 10 mg/kg
Settings: in vivo
Measured Parameter: AUC(0-t) (µg·h/mL)

{"Smiles String": "CN1CCN(c2ccc(-c3cc4c(N5CCN(C(=O)Nc6ccc(Cl)c(C(F)(F)F)c6)CC5)ncnc4s3)cc2)CC1", "Data Value": 9.22}

====

Target: Vascular endothelial growth factor receptor 1 (Homo sapiens, UniProt P17948)
Measured Parameter: IC50

{"Smiles String": "CN1CCN(c2ccc(-c3cc4c(N5CCN(C(=O)Nc6ccc(Cl)c(C(F)(F)F)c6)CC5)ncnc4s3)cc2)CC1", "Measured Parameter": "IC50", "Data Value": "> 10 µM"}

====

Biological target: Misshapen-like kinase 1 (Homo sapiens)
Measured Parameter: IC50

{"Smiles String": "CN1CCN(c2ccc(-c3cc4c(N5CCN(C(=O)Nc6ccc(Cl)c(C(F)(F)F)c6)CC5)ncnc4s3)cc2)CC1", "Data Value": "335 nM"}

====

Target: Mast/stem cell growth factor receptor Kit (Homo sapiens, UniProt P10721)
Sequence (P10721 whole entry): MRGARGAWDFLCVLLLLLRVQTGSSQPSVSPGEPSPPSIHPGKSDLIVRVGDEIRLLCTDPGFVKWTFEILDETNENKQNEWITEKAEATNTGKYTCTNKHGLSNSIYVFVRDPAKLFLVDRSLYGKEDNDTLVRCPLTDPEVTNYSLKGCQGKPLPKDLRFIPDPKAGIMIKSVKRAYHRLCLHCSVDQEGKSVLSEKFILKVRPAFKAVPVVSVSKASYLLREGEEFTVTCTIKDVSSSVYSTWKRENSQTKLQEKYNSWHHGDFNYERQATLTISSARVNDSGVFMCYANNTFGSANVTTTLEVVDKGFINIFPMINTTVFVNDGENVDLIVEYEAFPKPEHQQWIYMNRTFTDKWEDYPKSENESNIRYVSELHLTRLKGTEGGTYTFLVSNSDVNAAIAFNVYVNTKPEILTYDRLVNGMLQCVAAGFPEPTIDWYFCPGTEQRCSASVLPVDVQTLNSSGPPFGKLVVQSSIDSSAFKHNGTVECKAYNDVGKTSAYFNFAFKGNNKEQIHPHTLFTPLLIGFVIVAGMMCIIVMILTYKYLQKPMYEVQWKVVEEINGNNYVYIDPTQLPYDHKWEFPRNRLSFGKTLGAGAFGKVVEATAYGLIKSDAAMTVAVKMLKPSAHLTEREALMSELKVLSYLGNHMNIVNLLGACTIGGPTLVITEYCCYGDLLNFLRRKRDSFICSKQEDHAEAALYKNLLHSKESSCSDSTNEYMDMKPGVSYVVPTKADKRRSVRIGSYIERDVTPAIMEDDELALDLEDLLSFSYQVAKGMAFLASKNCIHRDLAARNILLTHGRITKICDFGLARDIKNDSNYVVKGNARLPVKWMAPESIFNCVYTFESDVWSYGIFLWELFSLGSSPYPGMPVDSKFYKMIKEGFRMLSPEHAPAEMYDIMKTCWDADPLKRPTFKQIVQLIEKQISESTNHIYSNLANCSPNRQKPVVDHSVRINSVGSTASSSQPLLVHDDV
Measured Parameter: IC50 (nM)

{"Smiles String": "CNC(=O)c1cc(COc2nnc(Nc3ccc(Cl)cc3)c3ccoc23)ccn1", "Data Value": 1}

====

Assay: Half life in Sprague-Dawley rat at 1 mg/kg, iv by LC-MS analysis
Format: ADME, organism-based
Conditions: in vivo

{"Smiles String": "CN1CCN(c2ccc(-c3cc4c(N5CCN(C(=O)Nc6ccc(Cl)c(C(F)(F)F)c6)CC5)ncnc4s3)cc2)CC1", "half-life": "13.1 h"}

====

Test: Half life in Sprague-Dawley rat at 10 mg/kg, po by LC-MS analysis
Type: ADME, organism-based
Details: in vivo
Measured Parameter: half-life (h)

{"Smiles String": "CN1CCN(c2ccc(-c3cc4c(N5CCN(C(=O)Nc6ccc(Cl)c(C(F)(F)F)c6)CC5)ncnc4s3)cc2)CC1", "Measurement Units": "h", "Data Value": 16}

====

Assay: Apparent volume of distribution in Sprague-Dawley rat at 1 mg/kg, iv by LC-MS analysis
Assay type: ADME, organism-based
Conditions: in vivo, read-out: Vz
Measured Parameter: Vd (L/kg)

{"Smiles String": "CN1CCN(c2ccc(-c3cc4c(N5CCN(C(=O)Nc6ccc(Cl)c(C(F)(F)F)c6)CC5)ncnc4s3)cc2)CC1", "Data Value": 5.4}

====

Experiment: Clearance in Sprague-Dawley rat at 1 mg/kg, iv by LC-MS analysis
Format: ADME, organism-based
Conditions: in vivo

{"Smiles String": "CN1CCN(c2ccc(-c3cc4c(N5CCN(C(=O)Nc6ccc(Cl)c(C(F)(F)F)c6)CC5)ncnc4s3)cc2)CC1", "Measurement Units": "mL/min/kg", "clearance": 4.8}

====

Assay: Cmax in Sprague-Dawley rat at 10 mg/kg, po by LC-MS analysis
Format: ADME, organism-based
Set-up: route oral, dose 10 mg/kg
Conditions: in vivo

{"Smiles String": "CN1CCN(c2ccc(-c3cc4c(N5CCN(C(=O)Nc6ccc(Cl)c(C(F)(F)F)c6)CC5)ncnc4s3)cc2)CC1", "Measurement Units": "ng/mL", "Cmax": 420}

====

Assay: AUC (0 to infinity) in Sprague-Dawley rat at 10 mg/kg, po by LC-MS analysis
Type: ADME, organism-based
Parameters: route oral, time infinity, dose 10 mg/kg
Conditions: in vivo

{"Smiles String": "CN1CCN(c2ccc(-c3cc4c(N5CCN(C(=O)Nc6ccc(Cl)c(C(F)(F)F)c6)CC5)ncnc4s3)cc2)CC1", "AUC(0-inf), ng·h/mL": 12300}

====

Biological target: Vascular endothelial growth factor receptor 2 (Homo sapiens, UniProt P35968)
Sequence (P35968 whole entry): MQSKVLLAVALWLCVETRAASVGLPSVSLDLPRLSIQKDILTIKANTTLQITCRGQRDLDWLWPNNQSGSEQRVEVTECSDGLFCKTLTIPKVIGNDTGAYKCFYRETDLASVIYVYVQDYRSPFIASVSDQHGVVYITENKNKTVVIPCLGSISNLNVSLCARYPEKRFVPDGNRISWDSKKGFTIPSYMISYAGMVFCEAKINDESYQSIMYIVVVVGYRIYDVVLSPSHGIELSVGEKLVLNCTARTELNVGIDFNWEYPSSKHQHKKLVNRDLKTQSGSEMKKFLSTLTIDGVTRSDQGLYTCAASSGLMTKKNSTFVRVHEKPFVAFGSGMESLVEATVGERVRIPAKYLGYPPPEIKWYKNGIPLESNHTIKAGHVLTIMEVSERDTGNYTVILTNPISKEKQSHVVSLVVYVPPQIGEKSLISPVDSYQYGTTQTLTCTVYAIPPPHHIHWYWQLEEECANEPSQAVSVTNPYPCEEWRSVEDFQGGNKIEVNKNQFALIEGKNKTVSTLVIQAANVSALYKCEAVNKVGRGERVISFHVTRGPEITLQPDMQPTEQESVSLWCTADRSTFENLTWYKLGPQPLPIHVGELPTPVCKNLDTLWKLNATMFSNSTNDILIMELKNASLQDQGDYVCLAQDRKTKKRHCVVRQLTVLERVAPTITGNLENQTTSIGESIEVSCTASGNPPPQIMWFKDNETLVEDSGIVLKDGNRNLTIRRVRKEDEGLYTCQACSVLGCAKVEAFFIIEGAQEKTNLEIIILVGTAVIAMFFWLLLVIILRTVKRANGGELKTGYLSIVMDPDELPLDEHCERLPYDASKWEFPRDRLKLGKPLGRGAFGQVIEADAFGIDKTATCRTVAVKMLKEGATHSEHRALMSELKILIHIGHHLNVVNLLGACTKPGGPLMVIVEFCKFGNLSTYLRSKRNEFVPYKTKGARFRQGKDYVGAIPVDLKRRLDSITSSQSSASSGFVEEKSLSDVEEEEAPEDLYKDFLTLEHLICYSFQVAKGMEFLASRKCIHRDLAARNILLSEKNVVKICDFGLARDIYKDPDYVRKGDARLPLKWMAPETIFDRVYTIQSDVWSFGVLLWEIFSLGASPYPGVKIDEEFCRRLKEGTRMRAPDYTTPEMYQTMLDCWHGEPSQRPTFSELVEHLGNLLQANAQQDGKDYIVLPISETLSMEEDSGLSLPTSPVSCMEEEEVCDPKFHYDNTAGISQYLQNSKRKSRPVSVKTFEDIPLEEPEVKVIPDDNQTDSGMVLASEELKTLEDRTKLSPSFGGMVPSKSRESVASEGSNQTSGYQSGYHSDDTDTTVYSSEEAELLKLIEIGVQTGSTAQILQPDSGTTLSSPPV
pIC50: −log10 of the molar value.

{"Smiles String": "CN1CCN(c2ccc(-c3cc4c(N5CCN(C(=O)Nc6ccc(Cl)c(C(F)(F)F)c6)CC5)ncnc4s3)cc2)CC1", "Target Desc": "Vascular endothelial growth factor receptor 2 (Homo sapiens, UniProt P35968)", "pIC50": "< 5.00"}

Reference for the values: ChEMBL document CHEMBL4837240
